Tested on: U2OS
Assay: Multiplex assay against U2OS
Assay type: toxicity, cell-based
Settings: human, 12 h, 10 µM, compound concentration 10 uM, replicate 2
# if measured Population Membrane Permeable-Phenotype (%) < 6%: T  # else: F

- Cc1ccc(/C(=C\CN2CCCC2)c2ccccn2)cc1 [TRIPROLIDINE]: F
- Cc1ccc(C(C)(O)c2nc3ccccc3s2)c(C)c1 (centres undefined): T
- COc1cc(NC(=O)CCN2CCC(OC(=O)Nc3ccccc3-c3ccccc3)CC2)c(Cl)cc1CNC[C@H](O)c1ccc(O)c2[nH]c(=O)ccc12 [BATEFENTEROL]: F
- CN(C)CCCc1cc(C(=O)Nc2ccc(-c3ccncc3)cc2)ccc1O.Cl.Cl: T
- CCOc1c2c(c(OCC)c3ncccc13)CN(c1ccc(CS(=O)(=O)NC(=O)Cc3ccccc3OC)cc1C)C2=O: F
- C[C@H]1[C@H]2CC[C@H]3[C@@H]4CC=C5C[C@@H](N(C)C)CC[C@]5(C)[C@H]4CC[C@]23CN1C [CONESSINE]: F
- CSc1ccccc1N1CCN(CCCCCC(=O)NC2CCCc3ccccc32)CC1.Cl (centres undefined): F
